Target: C-C motif chemokine 5/Neutrophil defensin 1 (Defensin, alpha 1) (Homo sapiens) (UniProt P13501+P59665)
Sequence (P13501 whole entry, looked up): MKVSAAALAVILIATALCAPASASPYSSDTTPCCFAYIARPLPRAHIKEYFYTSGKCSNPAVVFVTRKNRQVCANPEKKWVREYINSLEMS
Sequence (P59665 whole entry, looked up): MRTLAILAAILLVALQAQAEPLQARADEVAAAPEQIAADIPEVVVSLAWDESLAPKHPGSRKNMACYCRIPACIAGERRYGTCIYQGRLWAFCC
Assay: Inhibition of CCL5 (unknown origin)-HNP1 (unknown origin) interaction in HUVEC assessed as reduction in CCL5-HNP1-driven human monocyte adhesion at 100 ug/ml pre-incubated for 5 mins before human monocyte addition
Type: cell-based
The source made the active and inactive calls. No cut-off for these calls is given here.
Returns: one label drawn from label 1 = active, label 0 = inactive

Would you please look over these solved cases?
INSERT INTO measurements (substance, class_assignment) VALUES
  ('H-RRYGTSRYQ-OH', 'label 1'),
  ('H-TYQRRSGKY-OH', 'label 0'),
  ('H-YQGRLWAFSS-OH', 'label 1'),
  ('H-RRYGTSKYQ-OH', 'label 1');

Now look at this entry.
Q) How was H-RRYGTSIYQ-OH classified in this test?
A) label 1
